- experimental.system: HRP
- experiment.notes: Kinetic rate of HRP oxidation of TMB substrate on anti-peroxidase coated microwell plate, A (650 nm)
- Format: biochemical, horseradish
- condition.info: Example 1: additive at 0.5M in TMB solution (3 mM TMB, 1.25 mM hydroxypropyl beta-cyclodextrin, pH 3.5); TMBW as supplied; 0-1 OD at 650 nm, 0-15 minutes
outcome.measure: Kinetics (mAu/min)

# molecule, outcome.measure, assay.value
measured = [
    ("CNCC(=O)O", "Kinetics (mAu/min)", 45.014),
]

a. C[N+](C)(C)C[C@H](O)CC(=O)[O-] (racemic)
b. NCC(=O)O
Higher Kinetics (mAu/min) between a and b ? I would appreciate it if you answered with the label of your choice.
b
(b: 41.16 mAu/min, a: 18.432 mAu/min)

Origin of values: patent US9588123B2
